The values you see were collected from BindingDB's records for doi:10.1007/pl00005315.

pKi: −log10 of the molar value.
// 5-hydroxytryptamine receptor 2B (Rattus norvegicus, UniProt P30994) pKi records
observable: pKi

[[record]]
compound = "COc1cc(CC(C)N)c(OC)cc1F (stereo not drawn)"
recordedresult = 6.51

[[record]]
compound = "COc1cc(C(C)(C)C)c(OC)cc1CC(C)N (stereo not drawn) [DOTB]"
recordedresult = 7.30

[[record]]
compound = "COc1cc(CC(C)N(C)C)c(OC)cc1Br (stereo not drawn) [M-154]"
recordedresult = 6.17

